# subject.of.test: human c-Mpl-introduced Ba/F3 cell (Homo sapiens, UniProt P40238)
# Construct: expressed in transfected cells
# Sequence (P40238 26-635): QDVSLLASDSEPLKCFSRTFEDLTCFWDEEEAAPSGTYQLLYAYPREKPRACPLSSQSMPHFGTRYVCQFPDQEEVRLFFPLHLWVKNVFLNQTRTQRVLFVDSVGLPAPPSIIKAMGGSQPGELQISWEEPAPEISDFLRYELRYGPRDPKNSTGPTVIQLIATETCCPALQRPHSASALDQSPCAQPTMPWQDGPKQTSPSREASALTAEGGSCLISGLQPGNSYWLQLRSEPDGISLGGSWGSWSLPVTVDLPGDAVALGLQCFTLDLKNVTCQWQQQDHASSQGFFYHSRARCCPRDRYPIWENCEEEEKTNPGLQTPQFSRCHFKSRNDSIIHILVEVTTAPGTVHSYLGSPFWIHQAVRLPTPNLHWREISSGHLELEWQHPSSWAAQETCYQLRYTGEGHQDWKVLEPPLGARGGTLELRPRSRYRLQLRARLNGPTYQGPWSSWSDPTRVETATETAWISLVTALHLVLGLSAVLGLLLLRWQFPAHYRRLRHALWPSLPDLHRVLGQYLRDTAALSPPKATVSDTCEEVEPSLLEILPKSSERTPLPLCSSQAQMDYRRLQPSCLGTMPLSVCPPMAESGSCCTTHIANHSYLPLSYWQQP
# procedure.text: Test Example 2: human c-Mpl-introduced Ba/F3 cell proliferative activity
# Type: cell-based
# experimental.context: concentration exhibiting 30% proliferation; 100% = positive control (Example 315 of Patent Document 1) at 1 μM
measured.metric: human c-Mpl-introduced Ba/F3 cell proliferative activity EC30

Known results for compounds:
{"compound": "C[C@@H]1CCCN1Cc1sc(NC(=O)c2cnc(N3CCN(CC(=O)O)CC3)cn2)nc1-c1cc(C(F)(F)F)cs1 [Example 103]", "measurement": "1.7 µM"}
{"compound": "C[C@@H]1CCCN1Cc1sc(NC(=O)c2cnc(N3CCN(CC(=O)O)C[C@H]3C)cn2)nc1-c1cc(F)cc(C(F)(F)F)c1 [Example 141]", "measurement": ">10 µM"}
{"compound": "C[C@@H]1CCCN1Cc1sc(NC(=O)c2cnc(N3CCN(CCC(=O)O)C[C@@H]3C)cn2)nc1-c1cc(C(F)(F)F)cs1 [Example 100]", "measurement": "3.2 µM"}

The measured human c-Mpl-introduced Ba/F3 cell proliferative activity EC30 associated with COc1ncc(-c2nc(NC(=O)c3cnc(N4CCN(CCC(=O)O)CC4)cn3)sc2CN2CCC[C@H]2C)cc1C(F)(F)F [Example 33] reads >10 µM

The measured human c-Mpl-introduced Ba/F3 cell proliferative activity EC30 associated with CCC[C@@H]1CCCN1Cc1sc(NC(=O)c2cnc(N3CCN(CCC(=O)[O-])CC3)cn2)nc1-c1cccc(C(F)(F)F)c1.[Na+] [Example 124] reads >10 µM

The measured human c-Mpl-introduced Ba/F3 cell proliferative activity EC30 associated with CC[C@@H]1CCCN1Cc1sc(NC(=O)c2cnc(N3CCN(CCC(=O)O)[C@H](C)C3)cn2)nc1-c1cc(Cl)cs1 [Example 143] reads 7.8 µM

The measured human c-Mpl-introduced Ba/F3 cell proliferative activity EC30 associated with CC(C)CN(C)Cc1sc(NC(=O)c2cnc(N3CCN(CCC(=O)O)CC3)cn2)nc1-c1cc(F)cc(C(F)(F)F)c1 [Example 107] reads >10 µM

The measured human c-Mpl-introduced Ba/F3 cell proliferative activity EC30 associated with CC(C(=O)O)N1CCN(c2cnc(C(=O)Nc3nc(-c4cc(F)cc(C(F)(F)F)c4)c(CN4CCC[C@H]4C)s3)cn2)CC1 (stereo partly drawn) [Example 64] reads >10 µM

The measured human c-Mpl-introduced Ba/F3 cell proliferative activity EC30 associated with CCOc1ccc(-c2nc(NC(=O)c3cnc(N4CCN(CCC(=O)O)CC4)cn3)sc2CN2CCC[C@H]2C)cc1C(F)(F)F [Example 54] reads >10 µM
